- Assayed target: GABA-A receptor; alpha-5/beta-3/gamma-2 (Homo sapiens, UniProt P31644+P18507+P28472)
- Sequence (P31644 whole entry, one chain of several): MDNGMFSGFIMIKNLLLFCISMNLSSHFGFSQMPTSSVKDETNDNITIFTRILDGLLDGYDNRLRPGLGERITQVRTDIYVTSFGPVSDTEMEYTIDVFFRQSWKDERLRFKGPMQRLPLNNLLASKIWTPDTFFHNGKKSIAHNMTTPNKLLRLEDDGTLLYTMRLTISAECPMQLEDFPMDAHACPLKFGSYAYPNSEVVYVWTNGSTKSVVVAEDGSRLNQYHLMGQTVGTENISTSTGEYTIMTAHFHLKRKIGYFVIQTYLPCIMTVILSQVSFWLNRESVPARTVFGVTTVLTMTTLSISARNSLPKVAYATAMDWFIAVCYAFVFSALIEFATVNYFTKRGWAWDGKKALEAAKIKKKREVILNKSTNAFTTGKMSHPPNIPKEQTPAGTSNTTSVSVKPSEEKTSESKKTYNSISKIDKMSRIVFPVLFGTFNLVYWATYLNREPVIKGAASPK
- Measurement protocol: Binding affinity for human recombinant gamma-aminobutyric-acid (GABA) A receptor alpha-5-beta-3-gamma-2
Endpoint: Ki (nM)
Return type: number; implicit unit nM.

// field: Ki; key: CCOC(=O)c1[nH]cc2nc3ccccc3c-2c1COC ; value = 10

----------
- Assayed target: Gamma-aminobutyric acid receptor subunit alpha-6/beta-3/gamma-2 (Homo sapiens, UniProt Q16445+P18507+P28472)
- Sequence (Q16445 whole entry, one chain of several): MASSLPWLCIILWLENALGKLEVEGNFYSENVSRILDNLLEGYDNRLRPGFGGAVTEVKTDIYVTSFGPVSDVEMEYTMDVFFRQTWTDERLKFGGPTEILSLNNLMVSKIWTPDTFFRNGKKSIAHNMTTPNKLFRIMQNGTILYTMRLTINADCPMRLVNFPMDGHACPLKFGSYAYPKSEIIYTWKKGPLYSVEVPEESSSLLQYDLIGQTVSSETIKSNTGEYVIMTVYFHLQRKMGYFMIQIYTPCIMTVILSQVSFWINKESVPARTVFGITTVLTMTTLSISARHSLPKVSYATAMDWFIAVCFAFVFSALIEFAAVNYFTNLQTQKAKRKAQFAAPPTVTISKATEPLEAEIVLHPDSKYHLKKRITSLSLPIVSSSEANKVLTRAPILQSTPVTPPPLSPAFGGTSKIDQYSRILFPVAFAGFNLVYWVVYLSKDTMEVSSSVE
- Measurement protocol: Binding affinity for human recombinant gamma-aminobutyric-acid (GABA) A receptor alpha-6-beta-3-gamma-2
Listed here are compounds together with their documented Ki.

Some entries whose results are on file:
// field: Ki; key: COCc1c(C(=O)OC(C)C)[nH]cc2nc3ccc(OCc4ccccc4)cc3c1-2 ; value = > 1 µM

// field: Ki; key: c1ccc2c(c1)[nH]c1c[nH]c3c4cccnc4nc-3c12 ; value = > 10 µM

// field: Ki; key: Clc1ccc2c(c1)[nH]c1c3c4ccccc4nc-3c[nH]c12 ; value = > 10 µM

// field: Ki; key: COc1ccc2c(c1)[nH]c1c3c4ccccc4nc-3c[nH]c12 ; value = > 10 µM

Then there is this compound:
// field: Ki; key: c1ccc2c(c1)[nH]c1c[nH]c3c4ccncc4nc-3c12 ; value = > 10 µM

----------
- Assayed target: Gamma-aminobutyric acid receptor subunit alpha-1/beta-3/gamma-2 (Homo sapiens, UniProt P14867+P18507+P28472)
- Sequence (P14867 whole entry): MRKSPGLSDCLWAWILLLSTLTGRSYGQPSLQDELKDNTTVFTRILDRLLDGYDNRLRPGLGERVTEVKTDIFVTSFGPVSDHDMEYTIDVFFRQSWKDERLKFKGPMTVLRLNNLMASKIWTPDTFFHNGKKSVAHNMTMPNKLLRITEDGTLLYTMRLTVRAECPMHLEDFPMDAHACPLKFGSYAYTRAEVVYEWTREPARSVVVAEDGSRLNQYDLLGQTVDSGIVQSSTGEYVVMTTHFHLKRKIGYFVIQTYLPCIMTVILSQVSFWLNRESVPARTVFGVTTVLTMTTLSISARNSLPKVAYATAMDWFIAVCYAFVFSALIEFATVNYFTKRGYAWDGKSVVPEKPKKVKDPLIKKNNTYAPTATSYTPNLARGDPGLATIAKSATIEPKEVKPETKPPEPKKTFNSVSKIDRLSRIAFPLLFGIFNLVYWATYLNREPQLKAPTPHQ
- Sequence (P18507 whole entry): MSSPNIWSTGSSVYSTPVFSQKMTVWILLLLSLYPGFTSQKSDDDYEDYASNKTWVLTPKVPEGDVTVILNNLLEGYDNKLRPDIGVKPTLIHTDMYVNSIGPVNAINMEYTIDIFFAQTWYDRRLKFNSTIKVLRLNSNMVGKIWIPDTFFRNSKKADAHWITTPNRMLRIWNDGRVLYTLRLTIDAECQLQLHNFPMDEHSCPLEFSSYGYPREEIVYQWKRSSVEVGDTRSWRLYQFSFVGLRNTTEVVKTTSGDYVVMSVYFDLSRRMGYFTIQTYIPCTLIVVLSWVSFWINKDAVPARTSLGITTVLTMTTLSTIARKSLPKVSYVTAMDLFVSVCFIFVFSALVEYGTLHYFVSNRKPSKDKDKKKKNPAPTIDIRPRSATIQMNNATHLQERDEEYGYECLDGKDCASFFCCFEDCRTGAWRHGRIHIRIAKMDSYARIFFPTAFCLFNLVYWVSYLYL
- Sequence (P28472 whole entry): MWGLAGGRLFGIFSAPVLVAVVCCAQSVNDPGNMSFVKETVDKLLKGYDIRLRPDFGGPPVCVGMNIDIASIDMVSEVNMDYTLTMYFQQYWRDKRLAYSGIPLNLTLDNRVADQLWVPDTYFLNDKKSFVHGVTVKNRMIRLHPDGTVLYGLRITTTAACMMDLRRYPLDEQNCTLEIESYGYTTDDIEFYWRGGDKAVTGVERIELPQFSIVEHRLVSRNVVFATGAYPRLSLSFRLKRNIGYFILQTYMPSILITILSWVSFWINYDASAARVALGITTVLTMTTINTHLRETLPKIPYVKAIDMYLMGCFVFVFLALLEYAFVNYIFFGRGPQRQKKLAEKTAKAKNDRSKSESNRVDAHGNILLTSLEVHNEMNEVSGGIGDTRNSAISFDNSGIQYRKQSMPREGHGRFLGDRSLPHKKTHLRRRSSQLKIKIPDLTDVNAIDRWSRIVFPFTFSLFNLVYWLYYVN
- Measurement protocol: Binding affinity for human recombinant gamma-aminobutyric-acid (GABA) A receptor alpha-1-beta-3-gamma-2
Endpoint: Ki (nM)
Return type: number; implicit unit nM.

// field: Ki; key: COCc1c(C(=O)OC(C)C)[nH]cc2nc3ccc(OCc4ccccc4)cc3c1-2 ; value = 12

----------
Listed here are compounds together with their documented pKi.
- Assayed target: GABA-A receptor; alpha-2/beta-3/gamma-2 (Homo sapiens, UniProt P47869+P18507+P28472)
- Sequence (P47869 whole entry, one chain of several): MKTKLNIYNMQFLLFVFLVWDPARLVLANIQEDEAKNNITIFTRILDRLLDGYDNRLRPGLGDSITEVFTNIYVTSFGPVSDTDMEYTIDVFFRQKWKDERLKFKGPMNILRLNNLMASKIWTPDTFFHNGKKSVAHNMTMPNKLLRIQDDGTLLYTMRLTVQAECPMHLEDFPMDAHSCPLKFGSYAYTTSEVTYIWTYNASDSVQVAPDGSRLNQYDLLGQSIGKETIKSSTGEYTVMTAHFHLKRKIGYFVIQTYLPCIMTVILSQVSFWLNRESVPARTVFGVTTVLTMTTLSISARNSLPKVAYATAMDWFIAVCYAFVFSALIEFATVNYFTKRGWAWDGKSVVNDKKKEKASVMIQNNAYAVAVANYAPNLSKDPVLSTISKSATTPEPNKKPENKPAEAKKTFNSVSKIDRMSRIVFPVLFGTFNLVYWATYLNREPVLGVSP
- Measurement protocol: Binding affinity to human recombinant gamma-aminobutyric-acid (GABA) A receptor alpha-2-beta-3-gamma-2
Friendly reminder that pKi comes from taking -log10 of the concentration in mol/L.

// field: pKi; key: c1ccc2c(c1)[nH]c1c[nH]c3c4ccncc4nc-3c12 ; value = 7.62

// field: pKi; key: Clc1ccc2c(c1)[nH]c1c3c4ccccc4nc-3c[nH]c12 ; value = 7.92

// field: pKi; key: COc1ccc2c(c1)[nH]c1c3c4ccccc4nc-3c[nH]c12 ; value = 7.92

Then there is this compound:
// field: pKi; key: c1ccc2c(c1)[nH]c1c[nH]c3c4cccnc4nc-3c12 ; value = 7.92

----------
- Assayed target: Gamma-aminobutyric acid receptor subunit alpha-3/beta-3/gamma-2 (Homo sapiens, UniProt P34903+P18507+P28472)
- Sequence (P34903 whole entry, one chain of several): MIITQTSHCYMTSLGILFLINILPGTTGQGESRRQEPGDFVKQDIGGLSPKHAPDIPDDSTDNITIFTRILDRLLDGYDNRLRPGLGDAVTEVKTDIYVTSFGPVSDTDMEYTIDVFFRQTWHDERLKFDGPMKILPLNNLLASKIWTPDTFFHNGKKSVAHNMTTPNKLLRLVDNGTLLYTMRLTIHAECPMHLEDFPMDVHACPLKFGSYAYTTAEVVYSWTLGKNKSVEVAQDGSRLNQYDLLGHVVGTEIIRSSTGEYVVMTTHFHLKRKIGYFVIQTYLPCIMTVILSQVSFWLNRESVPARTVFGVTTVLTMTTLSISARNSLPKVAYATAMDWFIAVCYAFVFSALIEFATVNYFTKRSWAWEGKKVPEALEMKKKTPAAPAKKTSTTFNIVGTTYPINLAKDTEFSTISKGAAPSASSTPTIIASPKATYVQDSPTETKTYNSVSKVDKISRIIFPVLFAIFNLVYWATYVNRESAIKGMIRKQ
- Measurement protocol: Binding affinity for human recombinant gamma-aminobutyric-acid (GABA) A receptor alpha-3-beta-3-gamma-2
Endpoint: Ki (nM)
Return type: number; implicit unit nM.

Some entries whose results are on file:
// field: Ki; key: Clc1ccc2c(c1)[nH]c1c3c4ccccc4nc-3c[nH]c12 ; value = 24

// field: Ki; key: CCOC(=O)c1[nH]cc2nc3ccc(OCc4ccccc4)cc3c-2c1COC ; value = 6

// field: Ki; key: CCOC(=O)c1[nH]cc2nc3ccccc3c-2c1COC ; value = 4.9

// field: Ki; key: c1ccc2c(c1)[nH]c1c[nH]c3c4cccnc4nc-3c12 ; value = 16

Then there is this compound:
// field: Ki; key: c1ccc2c(c1)[nH]c1c[nH]c3c4ccncc4nc-3c12 ; value = 31
